Tested on: Hs578T complex spheroid growth, percent test/control
Method: Anticancer human tumor Hs578T cell line growth inhibition [AhR];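 also: luminescent viability signal as a proxy for spheroid growth; spheroids exposed to agents for one week after three days of growth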
Condition Set: second compound 0.1 µM; first compound 0.316 µM; stronger effect = lower value

# Molecule, viability, T/C (%)
records = [
    ("Nc1ccn(C2OC(CO)C(O)C2(F)F)c(=O)n1 (centres undefined) + Cc1ccccc1N=Nc1ccc(NC(=O)c2ccnn2C)c(C)c1", 52.5),
    ("O=C(C=Cc1cccc(S(=O)(=O)Nc2ccccc2)c1)NO + Cc1cncc(-c2nc(NCCc3c[nH]c4ccccc34)c3ncn(C(C)C)c3n2)c1", 106),
    ("CC1COCCN1c1cc(-c2ccnn2C)c2ccnc(-c3ccn[nH]3)c2n1 (centres undefined) + CC(CO)NC(=O)c1cc(-c2ccc(Cl)cc2)nn(-c2cnn(C)c2)c1=O", 53.6),
    ("Nc1ccn(C2OC(CO)C(O)C2(F)F)c(=O)n1 (centres undefined) + CC(CO)NC(=O)c1cc(-c2ccc(Cl)cc2)nn(-c2cnn(C)c2)c1=O", 62.1),
]

---

# viability, T/C listing for each entry below
Tested on: Hs578T complex spheroid growth, percent test/control
Method: Anticancer human tumor Hs578T cell line growth inhibition [AhR];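 also: luminescent viability signal as a proxy for spheroid growth; spheroids exposed to agents for one week after three days of growth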
Condition Set: second compound 0.1 µM; first compound 3.16 µM; stronger effect = lower value

# Molecule, Target Desc, viability, T/C / %
rows = [
    ("COc1cc(C2c3cc4c(cc3C(OC3OC5COC(C)OC5C(O)C3O)C3COC(=O)C23)OCO4)cc(OC)c1O (stereo not drawn) + Cc1cncc(-c2nc(NCCc3c[nH]c4ccccc34)c3ncn(C(C)C)c3n2)c1", "Hs578T complex spheroid growth, percent test/control", 88.5),
    ("COc1ccc([C@@H](O)c2cc(-c3ncnc4cc(N5CCOCC5)ccc34)c(F)cc2Cl)nn1 + Cc1cncc(-c2nc(NCCc3c[nH]c4ccccc34)c3ncn(C(C)C)c3n2)c1", "Hs578T complex spheroid growth, percent test/control", 61),
    ("COc1cc(Nc2ncc3c(n2)-c2ccc(Cl)cc2C(c2c(F)cccc2OC)=NC3)ccc1C(=O)O + Cc1ccccc1N=Nc1ccc(NC(=O)c2ccnn2C)c(C)c1", "Hs578T complex spheroid growth, percent test/control", 71.9),
]

---

Test system: Hs578T complex spheroid growth, percent test/control
Method: Anticancer human tumor Hs578T cell line growth inhibition [AhR];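 also: luminescent viability signal as a proxy for spheroid growth; spheroids exposed to agents for one week after three days of growth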
Condition Set: curve of first compound; second compound 0.1 µM
pIC50: −log10 of the molar value.
# pIC50 listing for each entry below

# Molecule, Comparison Sign, pIC50
measured = [
    ("CC1COCCN1c1cc(C2(S(C)(=N)=O)CC2)nc(-c2ccnc3[nH]ccc23)n1 (stereo unspecified) + Cc1ccccc1N=Nc1ccc(NC(=O)c2ccnn2C)c(C)c1", "=", 5.03),
    ("CC(C)CC(NC(=O)C(Cc1ccccc1)NC(=O)c1cnccn1)B(O)O (stereo unspecified) + Cc1ccccc1N=Nc1ccc(NC(=O)c2ccnn2C)c(C)c1", "=", 8.30),
    ("CC1(C)CCC(CN2CCN(c3ccc(C(=O)NS(=O)(=O)c4ccc(NCC5CCOCC5)c([N+](=O)[O-])c4)c(Oc4cnc5[nH]ccc5c4)c3)CC2)=C(c2ccc(Cl)cc2)C1 + Cc1ccccc1N=Nc1ccc(NC(=O)c2ccnn2C)c(C)c1", "<", 5.00),
    ("O=C(C=Cc1cccc(S(=O)(=O)Nc2ccccc2)c1)NO + Cc1cncc(-c2nc(NCCc3c[nH]c4ccccc34)c3ncn(C(C)C)c3n2)c1", "=", 5.64),
    ("COc1cccc2c1C(=O)c1c(O)c3c(c(O)c1C2=O)CC(O)(C(=O)CO)CC3OC1CC(N)C(O)C(C)O1 (stereo unspecified) + Cc1ccccc1N=Nc1ccc(NC(=O)c2ccnn2C)c(C)c1", "=", 6.62),
    ("Cn1ncnc1C1c2n[nH]c(=O)c3cc(F)cc(c23)NC1c1ccc(F)cc1 (stereo unspecified) + Cc1cncc(-c2nc(NCCc3c[nH]c4ccccc34)c3ncn(C(C)C)c3n2)c1", "<", 7.00),
]
